target: mushroom tyrosinase (Agaricus bisporus, UniProt C7FF04); construct: purchased Sigma-Aldrich; test: Kinetic studies on the inhibition of mushroom tyrosinase (Lineweaver–Burk and Dixon plots); type: biochemical; settings: L-tyrosine; Dixon plot
Sequence (C7FF04 1-392): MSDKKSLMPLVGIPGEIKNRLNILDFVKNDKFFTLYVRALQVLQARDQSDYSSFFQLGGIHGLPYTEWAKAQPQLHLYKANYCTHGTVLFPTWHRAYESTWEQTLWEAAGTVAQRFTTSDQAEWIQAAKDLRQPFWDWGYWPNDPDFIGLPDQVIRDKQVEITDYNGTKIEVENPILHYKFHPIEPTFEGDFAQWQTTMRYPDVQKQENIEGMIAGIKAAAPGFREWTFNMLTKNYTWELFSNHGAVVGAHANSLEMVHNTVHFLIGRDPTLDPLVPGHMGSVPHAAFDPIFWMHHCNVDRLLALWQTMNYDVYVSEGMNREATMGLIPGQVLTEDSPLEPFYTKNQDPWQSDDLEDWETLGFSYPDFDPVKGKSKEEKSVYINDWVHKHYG
metricName: pKi
Scale for pKi: -log10 of concentration given in mol/L; no unit attached.

// Oc1ccc(-c2nc3cc(C(F)(F)F)ccc3s2)c(O)c1 : pKi value = 7.42

====

metricName: melting point

Reported melting point of COc1ccc(-c2nc3cc(C(F)(F)F)ccc3s2)cc1O : 142.1 to 144.5 °C

Short answer for Oc1ccc(-c2nc3cc(C(F)(F)F)ccc3s2)cc1O : melting point was 267.3 to 269.4 °C

Note to self: melting point recorded for COc1cc(-c2nc3cc(C(F)(F)F)ccc3s2)ccc1O was 155.7 to 159.9 °C

====

Recorded melting point for the following compounds

Completed entries (count: 5):
Sure, the documented melting point for COc1cc(-c2nc3cc(C(F)(F)F)ccc3s2)cc(OC)c1O is 220.6 to 222.6 °C

The reported melting point of the compound Oc1cc(O)cc(-c2nc3cc(C(F)(F)F)ccc3s2)c1 was 256.7 to 260.6 °C

melting point reading for CCOc1cc(-c2nc3cc(C(F)(F)F)ccc3s2)ccc1O : 117 to 117.8 °C

Given item COc1cc(-c2nc3cc(C(F)(F)F)ccc3s2)cc(OC)c1OC , the value recorded as its melting point is 132.5 to 134 °C

Reported melting point of Oc1ccccc1-c1nc2cc(C(F)(F)F)ccc2s1 : 175 to 176.5 °C

Next compound, melting point to be filled in.
What the record says about Oc1ccc(-c2nc3cc(C(F)(F)F)ccc3s2)c(O)c1 : melting point is 236.2 to 238.2 °C

====

biological target: mushroom tyrosinase (Agaricus bisporus, UniProt C7FF04); construct: purchased Sigma-Aldrich; experiment: Mushroom tyrosinase inhibition assay; type: biochemical; conditions: L-tyrosine as substrate
Sequence (C7FF04 1-392 limits assumed): as the sequence (C7FF04 1-392) above
metricName: IC50 (µM)
Write it as a number; the unit µM goes unstated.

Would you please look over these solved cases?
Case Oc1ccc(-c2nc3cc(C(F)(F)F)ccc3s2)c(O)c1 [Compound 1b] , mushroom tyrosinase (Agaricus bisporus, UniProt C7FF04), IC50 recorded as 0.2

Let me check: Oc1cc(O)cc(-c2nc3cc(C(F)(F)F)ccc3s2)c1 [Compound 1n] , system mushroom tyrosinase (Agaricus bisporus, UniProt C7FF04), measured IC50 is 217

Value sought: IC50, system mushroom tyrosinase (Agaricus bisporus, UniProt C7FF04), item Cc1cc(-c2nc3cc(C(F)(F)F)ccc3s2)cc(C)c1O [Compound 1m] . Result: 129

Next:
The recorded IC50 with mushroom tyrosinase (Agaricus bisporus, UniProt C7FF04) for COc1cc(-c2nc3cc(C(F)(F)F)ccc3s2)ccc1O [Compound 1d] was 291

The recorded IC50 with mushroom tyrosinase (Agaricus bisporus, UniProt C7FF04) for Oc1ccc(-c2nc3cc(C(F)(F)F)ccc3s2)cc1Br [Compound 1p] was 102

Hey, mushroom tyrosinase (Agaricus bisporus, UniProt C7FF04) data for COc1ccc(-c2nc3cc(C(F)(F)F)ccc3s2)cc1OC [Compound 1j] : IC50 came out at 264

Tested on mushroom tyrosinase (Agaricus bisporus, UniProt C7FF04): Oc1ccc(-c2nc3cc(C(F)(F)F)ccc3s2)cc1 [Compound 1a] . Observed IC50: 54.2
